Where these numbers come from: ChEMBL document CHEMBL3988442

Entries and their Percent Effect
Molecular target: Proteasome subunit beta (Trypanosoma cruzi) (UniProt O96673)
Sequence (O96673 as listed by the source): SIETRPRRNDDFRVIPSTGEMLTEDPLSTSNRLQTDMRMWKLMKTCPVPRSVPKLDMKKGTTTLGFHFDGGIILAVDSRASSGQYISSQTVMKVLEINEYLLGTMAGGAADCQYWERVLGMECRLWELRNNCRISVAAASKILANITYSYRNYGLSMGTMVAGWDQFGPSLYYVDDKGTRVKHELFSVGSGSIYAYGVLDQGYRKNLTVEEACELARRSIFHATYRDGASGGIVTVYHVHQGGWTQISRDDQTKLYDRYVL
Experiment: Trypanosoma cruzi proteasome chymotrypsin-like activity (TcProtChymo) assay.
Format: functional
Set-up: scale not given: in the data most compounds retested in dose-response had high values
Conditions: 9.37 µM
Test Readout: Percent Effect (%)

>>> df
                                    compound                            assayed_target  data_value
 0  CC(=O)N1CC(=O)N(c2ccccc2)CC12CCN(Cc1nccs1)C2 (stereo not given)  Proteasome subunit beta (Trypanosoma cruzi) (UniProt O96673)        7.69
 1  NC(=O)CN1CCC(C(=O)N2CCCC(OCc3cccnc3)C2)CC1 (stereo not given)  Proteasome subunit beta (Trypanosoma cruzi) (UniProt O96673)        6.16
 2  CC1COCCN1C(=O)c1cccc(OCc2cscn2)c1 (stereo not given)  Proteasome subunit beta (Trypanosoma cruzi) (UniProt O96673)         9.3
 3  Cc1nc(C2CCCN(C(=O)c3ccco3)C2)no1 (stereo not given)  Proteasome subunit beta (Trypanosoma cruzi) (UniProt O96673)        1.37
 4            c1cnn(CCNCc2csc(-c3ccsc3)n2)c1  Proteasome subunit beta (Trypanosoma cruzi) (UniProt O96673)        20.6
 5  Cc1cccc(CN2CCc3c(nc(N4CCC(C)CC4)[nH]c3=O)C2)n1  Proteasome subunit beta (Trypanosoma cruzi) (UniProt O96673)         5.3
 6  CC(=O)N1CCc2c(nc(-c3ccncc3)nc2N(C)CC(O)CO)C1 (stereo not given)  Proteasome subunit beta (Trypanosoma cruzi) (UniProt O96673)        3.94
 7  CS(=O)(=O)NCC1CCCN(C(=O)Nc2ccccc2Cl)C1 (stereo not given)  Proteasome subunit beta (Trypanosoma cruzi) (UniProt O96673)        15.2
 8      Cc1ccc(C(=O)NCCS(C)(=O)=O)c(=O)[nH]1  Proteasome subunit beta (Trypanosoma cruzi) (UniProt O96673)        16.1
 9          Cc1nn(C(C)C)c(C)c1NC(=O)c1ccccc1  Proteasome subunit beta (Trypanosoma cruzi) (UniProt O96673)        14.5
10  CC(C(=O)NCCCN1CCCCCC1=O)n1cncn1 (stereo not given)  Proteasome subunit beta (Trypanosoma cruzi) (UniProt O96673)        8.04
11  c1cnnc(N2CCCC(NCc3cn4ccccc4n3)C2)c1 (stereo not given)  Proteasome subunit beta (Trypanosoma cruzi) (UniProt O96673)        26.5
12  CC(=O)Nc1cc(C(=O)N2CCOCC2c2ccc(C)o2)ccc1F (stereo not given)  Proteasome subunit beta (Trypanosoma cruzi) (UniProt O96673)        4.18
13  Cc1cc(C)n(-c2cncc(NCCNC(=O)CC3CCCC3)n2)n1  Proteasome subunit beta (Trypanosoma cruzi) (UniProt O96673)        8.67
14       Cc1cccn2c(=O)cc(OC(=O)c3ccccc3)nc12  Proteasome subunit beta (Trypanosoma cruzi) (UniProt O96673)        5.27
15  Cc1nn(C)c(C)c1C1COCCN1C(=O)c1cnc(N)c(Cl)c1 (stereo not given)  Proteasome subunit beta (Trypanosoma cruzi) (UniProt O96673)        10.1
16    CN(CCNC(=O)N1CCN(Cc2ccon2)CC1)c1ccccc1  Proteasome subunit beta (Trypanosoma cruzi) (UniProt O96673)        12.2
17  CCC1c2ccsc2CCN1C(=O)NCc1ccccn1 (stereo not given)  Proteasome subunit beta (Trypanosoma cruzi) (UniProt O96673)        10.2
18        CC(C)Cc1cc(NC(=O)c2ccc[nH]2)n(C)n1  Proteasome subunit beta (Trypanosoma cruzi) (UniProt O96673)      -0.169
19    Cc1noc(C)c1CN1CCN(Cc2ccncc2)c2ncccc2C1  Proteasome subunit beta (Trypanosoma cruzi) (UniProt O96673)        2.56
20      OC1(Cn2ccc3ccncc32)CCN(Cc2ccccn2)CC1  Proteasome subunit beta (Trypanosoma cruzi) (UniProt O96673)        8.42
21          c1ccc(-c2noc3c2CN(CC2CC2)CC3)cc1  Proteasome subunit beta (Trypanosoma cruzi) (UniProt O96673)        6.92
22  CCNC(=O)c1ccc(N2CCCC(c3nccn3C(C)C)C2)nc1 (stereo not given)  Proteasome subunit beta (Trypanosoma cruzi) (UniProt O96673)        11.2
23  O=C(CO)N1C[C@H]2CC[C@@H]1CN(C1Cc3ccccc3C1)C2  Proteasome subunit beta (Trypanosoma cruzi) (UniProt O96673)        5.75
24        CC(C)(C)C(=O)NCCc1ccn(-c2ccccc2)n1  Proteasome subunit beta (Trypanosoma cruzi) (UniProt O96673)        8.92
